This collection of values is drawn from patent US7659394B2.

# assayed-system: human norepinephrine transporter (Homo sapiens, UniProt P23975)
# Construct: host or cells: HEK-293
# Sequence (P23975 whole entry): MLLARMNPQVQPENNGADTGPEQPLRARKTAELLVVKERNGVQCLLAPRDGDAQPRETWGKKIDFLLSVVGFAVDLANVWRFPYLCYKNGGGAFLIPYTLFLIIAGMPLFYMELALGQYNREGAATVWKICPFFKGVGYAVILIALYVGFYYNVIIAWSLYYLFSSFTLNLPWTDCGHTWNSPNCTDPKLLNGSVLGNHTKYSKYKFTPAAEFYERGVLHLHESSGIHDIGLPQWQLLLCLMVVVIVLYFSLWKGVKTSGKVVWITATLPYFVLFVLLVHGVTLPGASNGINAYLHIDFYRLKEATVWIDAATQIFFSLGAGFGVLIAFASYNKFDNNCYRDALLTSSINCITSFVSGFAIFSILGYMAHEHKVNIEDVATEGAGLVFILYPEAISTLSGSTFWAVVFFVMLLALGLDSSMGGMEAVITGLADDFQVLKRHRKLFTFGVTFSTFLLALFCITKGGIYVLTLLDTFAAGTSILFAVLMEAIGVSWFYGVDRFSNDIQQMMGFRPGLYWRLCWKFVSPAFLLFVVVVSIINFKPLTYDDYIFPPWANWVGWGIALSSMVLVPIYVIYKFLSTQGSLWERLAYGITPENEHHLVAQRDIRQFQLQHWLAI
# method-notes: hNET receptor binding ([125I]-RTI-55 radioligand binding)
# measurement-context: membranes of HEK-293 cells transfected with human norepinephrine transporter, IC50 converted to Ki by Cheng-Prusoff, read-out: hNET (Ki)
parameter-measured: pKi
// scale note: pKi = -log10(conc_M); give the bare number

Qu. # pKi lookup, item COc1ccccc1-c1ccccc1OCC1CNCCO1 (stereo not shown)
Ans. 7.26

Qu. # pKi lookup, item c1ccc([C@H](Oc2ccccc2C2CCCC2)[C@@H]2CNCCO2)nc1
Ans. 7.74

Qu. # pKi lookup, item COCc1ccccc1O[C@@H](c1ccccc1)[C@@H]1CNCCO1
Ans. 7.77

Qu. # pKi lookup, item CCOc1ncccc1O[C@@H](c1ccccc1)[C@@H]1CNCCO1
Ans. 8.05

----------
# assayed-system: human norepinephrine transporter (Homo sapiens)
# Construct: host or cells: HEK-293
# method-notes: hNET receptor binding ([125I]-RTI-55 radioligand binding)
# measurement-context: membranes of HEK-293 cells transfected with human norepinephrine transporter, IC50 converted to Ki by Cheng-Prusoff, read-out: hNET (Ki)
pKi: −log10 of the molar value.
pKi vs 7: at or above is label 1, below is label 0.

Qu. In plain terms: is recorded pKi at least 7 for Fc1ccc(Oc2ncccc2OC[C@@H]2CNCCO2)cc1 ?
Ans. label 1

Qu. In plain terms: is recorded pKi at least 7 for c1ccc([C@H](Oc2ccccc2C2CC2)[C@@H]2CNCCO2)cc1 ?
Ans. label 1

Qu. In plain terms: is recorded pKi at least 7 for Oc1ccccc1O[C@@H](c1ccccc1)[C@@H]1CNCCO1 ?
Ans. label 1

Qu. In plain terms: is recorded pKi at least 7 for Cc1coc(C(Oc2c(F)cccc2F)[C@@H]2CNCCO2)n1 (some centres unmarked) [Example 173] ?
Ans. label 1

Qu. In plain terms: is recorded pKi at least 7 for c1ccc(Cc2ccccc2O[C@@H](c2ccccc2)[C@@H]2CNCCO2)cc1 ?
Ans. label 1

Qu. In plain terms: is recorded pKi at least 7 for c1ccc([C@H](Oc2ccccc2C2CC2)[C@H]2CNCCO2)cc1 ?
Ans. label 1

Qu. In plain terms: is recorded pKi at least 7 for Fc1ccc(Cl)c(O[C@@H](c2ccccn2)[C@@H]2CNCCO2)c1 ?
Ans. label 1

Qu. In plain terms: is recorded pKi at least 7 for Fc1ccccc1OC(c1cccnc1)[C@@H]1CNCCO1 (mixture of isomers) ?
Ans. label 1

Qu. In plain terms: is recorded pKi at least 7 for Fc1cccc(C2CC2)c1O[C@@H](c1ccccc1)C1CNCCO1 (stereo in doubt) ?
Ans. label 1

Qu. In plain terms: is recorded pKi at least 7 for FC(F)(F)c1ccccc1O[C@@H](c1ccccc1)[C@@H]1CNCCO1 ?
Ans. label 1

Qu. In plain terms: is recorded pKi at least 7 for CC(C)Oc1cccc(F)c1O[C@@H](c1ccccc1)[C@@H]1CNCCO1 ?
Ans. label 1

Qu. In plain terms: is recorded pKi at least 7 for COc1cccc(F)c1OC(c1cccnc1)[C@H]1CNCCO1 (mixture of isomers) [Example 202] ?
Ans. label 1

Qu. In plain terms: is recorded pKi at least 7 for c1ccc(C(Oc2ccccc2C2CC2)[C@H]2CNCCO2)cc1 (some centres unmarked) ?
Ans. label 1

Qu. In plain terms: is recorded pKi at least 7 for Cc1cccnc1[C@H](Oc1ccccc1OC(F)(F)F)[C@@H]1CNCCO1 ?
Ans. label 0

Qu. In plain terms: is recorded pKi at least 7 for CCOc1ccccc1O[C@@H](c1ccccn1)[C@@H]1CNCCO1 ?
Ans. label 1

Qu. In plain terms: is recorded pKi at least 7 for N#Cc1ccccc1O[C@@H](c1ccccn1)[C@@H]1CNCCO1 (single isomer, unassigned) [Example 22 (2S, 3R)] ?
Ans. label 0

Qu. In plain terms: is recorded pKi at least 7 for Cc1ccccc1-c1ccccc1OCC1CNCCO1 (racemic) ?
Ans. label 0

Qu. In plain terms: is recorded pKi at least 7 for Cc1ccc(-c2cc(F)ccc2OCC2CNCCO2)cc1 (single isomer, unassigned) ?
Ans. label 1

Qu. In plain terms: is recorded pKi at least 7 for CCSc1ccccc1O[C@@H](c1ccccc1)[C@@H]1CNCCO1 ?
Ans. label 1
